Below, each of the molecules is paired with its reported GI50 value.
# System: ACHN
# measurement_notes: NCI tumour cell line growth inhibition, 48 h
Activity calls are given as the source filed them. No stated cut-off is given here; in the data, active = GI50 up to about 1.1 µM and inactive = higher.

Examples with answers:
Supply recorded GI50 for O=[N+]([O-])c1ccc2nc(-c3ccccn3)c(-c3ccccn3)nc2c1 here.
80 µM (inactive)

Please give measured GI50 of the following entry: Nc1ncnc2c1ncn2CC(O)C(=O)O (configuration not stated)
> 100 µM (inactive)

Give recorded GI50. CCOP(=O)(OCC)C(Nc1cccc(F)c1)c1ccc(N(C)C)cc1 (configuration not stated)
> 100 µM (inactive)

Attention now shifts to the item below.
Quote GI50 reported for CC(C)C(NCc1c2ccccc2nc2ccccc12)C(=O)O (configuration not stated) please.
35 µM (inactive)

This collection of values is drawn from ChEMBL document CHEMBL1201862.
